Reported IC50 values, DacB (Rv3627c) (Mycobacterium tuberculosis, UniProt O06380).
A number alone suffices; assume nM.

• C[C@@H](O)[C@H]1C(=O)N2C(C(=O)O)=C(S[C@@H]3CN[C@H](C(=O)N(C)C)C3)[C@H](C)[C@H]12 [Meropenem] = 1500

Now look at this entry.
Q) Give its IC50 value. Item: C[C@@H](O)[C@H]1C(=O)N2C(C(=O)[O-])=C(SC3Cn4cnc[n+]4C3)[C@H](C)[C@H]12 (some centres unmarked) [Biapenem]
A) 3500

----------
Biological target: DacB1 (Rv3330) (Mycobacterium tuberculosis, UniProt O53380)
Sequence (O53380 33-374): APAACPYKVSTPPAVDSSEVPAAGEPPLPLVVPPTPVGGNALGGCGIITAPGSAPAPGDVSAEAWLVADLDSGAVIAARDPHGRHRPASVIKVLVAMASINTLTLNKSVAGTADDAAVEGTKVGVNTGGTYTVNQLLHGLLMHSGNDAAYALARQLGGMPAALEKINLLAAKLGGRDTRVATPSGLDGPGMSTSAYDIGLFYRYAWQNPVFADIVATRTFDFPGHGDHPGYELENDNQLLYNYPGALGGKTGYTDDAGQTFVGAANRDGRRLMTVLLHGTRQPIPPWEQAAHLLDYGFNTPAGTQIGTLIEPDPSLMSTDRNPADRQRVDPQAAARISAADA
parameterMeasured: IC50
Output should be the measured figure followed by the unit it is expressed in.

- C[C@@H](O)[C@H]1C(=O)N2C(C(=O)[O-])=C(SC3Cn4cnc[n+]4C3)[C@H](C)[C@H]12 (stereo partly drawn): 18.1 µM
- C[C@@H](O)[C@H]1C(=O)N2C(C(=O)O)=C(SCCN=CN)C[C@H]12: 4.5 µM

Please find the next compound below.
Q) DacB1 (Rv3330) (Mycobacterium tuberculosis, UniProt O53380) / IC50 / `CO[C@@]1(NC(=O)Cc2cccs2)C(=O)N2C(C(=O)O)=C(COC(N)=O)CS[C@@H]21` : value?
A) 15.6 µM

----------
Quick reference: IC50 of the listed items.
Molecular target: PbpB (Rv2163c) (Mycobacterium tuberculosis)
Sequence (L0T911 112-679): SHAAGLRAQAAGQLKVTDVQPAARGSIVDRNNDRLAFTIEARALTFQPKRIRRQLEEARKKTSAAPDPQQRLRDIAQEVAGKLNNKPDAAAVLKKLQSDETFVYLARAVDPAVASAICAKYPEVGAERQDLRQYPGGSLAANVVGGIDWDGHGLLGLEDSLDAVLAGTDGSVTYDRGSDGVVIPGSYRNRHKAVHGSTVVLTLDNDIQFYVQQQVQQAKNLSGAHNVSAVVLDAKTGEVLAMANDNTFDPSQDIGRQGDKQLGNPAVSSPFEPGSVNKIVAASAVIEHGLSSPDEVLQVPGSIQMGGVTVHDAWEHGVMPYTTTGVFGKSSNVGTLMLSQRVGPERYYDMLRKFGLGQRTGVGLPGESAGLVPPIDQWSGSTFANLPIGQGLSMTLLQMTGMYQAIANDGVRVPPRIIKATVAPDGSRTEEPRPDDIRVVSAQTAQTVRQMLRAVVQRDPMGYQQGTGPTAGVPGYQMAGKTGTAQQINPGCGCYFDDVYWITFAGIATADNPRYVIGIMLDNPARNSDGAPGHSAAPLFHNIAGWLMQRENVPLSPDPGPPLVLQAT
Numbers only here, please. The scale is nM.

• CC1(C)S[C@@H]2[C@H](NC(=O)[C@H](N)c3ccccc3)C(=O)N2[C@H]1C(=O)O = 1500

Moving on to the next compound.
Q) Field: IC50 (PbpB (Rv2163c) (Mycobacterium tuberculosis)). Entry: `C[C@@H](O)[C@H]1C(=O)N2C(C(=O)O)=C(S[C@@H]3CN[C@H](C(=O)N(C)C)C3)[C@H](C)[C@H]12`
A) 4100

----------
Molecular target: Rv1730c (Mycobacterium tuberculosis, UniProt P71988)
Sequence (P71988 entry or part of it): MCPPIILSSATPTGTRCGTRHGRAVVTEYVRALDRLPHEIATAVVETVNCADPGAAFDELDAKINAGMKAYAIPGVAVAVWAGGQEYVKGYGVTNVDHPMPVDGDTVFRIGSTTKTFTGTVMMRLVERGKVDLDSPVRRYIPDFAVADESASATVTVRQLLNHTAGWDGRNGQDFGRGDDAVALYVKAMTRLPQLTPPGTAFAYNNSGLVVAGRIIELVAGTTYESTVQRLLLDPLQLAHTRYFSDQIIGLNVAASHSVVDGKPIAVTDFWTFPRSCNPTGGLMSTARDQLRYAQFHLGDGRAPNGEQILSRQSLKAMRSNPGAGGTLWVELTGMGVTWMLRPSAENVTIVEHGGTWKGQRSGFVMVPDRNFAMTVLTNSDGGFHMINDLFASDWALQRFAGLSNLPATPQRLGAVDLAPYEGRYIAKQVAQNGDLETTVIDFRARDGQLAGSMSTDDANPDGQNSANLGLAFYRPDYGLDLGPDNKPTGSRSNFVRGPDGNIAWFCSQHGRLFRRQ
Measured pIC50 accompanies every entry in the list below.
As a rule, pIC50 stands for the negative log10 of the concentration, concentration in M.

Here are 2 molecules together with their reported answers.
• C[C@@H](O)[C@H]1C(=O)N2C(C(=O)O)=C([C@H]3CCCO3)S[C@H]12 = 4.05
• C[C@@H](O)[C@H]1C(=O)N2C(C(=O)[O-])=C(SC3Cn4cnc[n+]4C3)[C@H](C)[C@H]12 (stereo partly drawn) = 3.24

Q) For `C[C@@H](O)[C@H]1C(=O)N2C(C(=O)O)=C(S[C@@H]3CN[C@H](C(=O)N(C)C)C3)[C@H](C)[C@H]12` , what is its reported pIC50?
A) 3.08

----------
Biological target: PonA1 (Rv0050) (Mycobacterium tuberculosis)
Sequence (P71707 160-820): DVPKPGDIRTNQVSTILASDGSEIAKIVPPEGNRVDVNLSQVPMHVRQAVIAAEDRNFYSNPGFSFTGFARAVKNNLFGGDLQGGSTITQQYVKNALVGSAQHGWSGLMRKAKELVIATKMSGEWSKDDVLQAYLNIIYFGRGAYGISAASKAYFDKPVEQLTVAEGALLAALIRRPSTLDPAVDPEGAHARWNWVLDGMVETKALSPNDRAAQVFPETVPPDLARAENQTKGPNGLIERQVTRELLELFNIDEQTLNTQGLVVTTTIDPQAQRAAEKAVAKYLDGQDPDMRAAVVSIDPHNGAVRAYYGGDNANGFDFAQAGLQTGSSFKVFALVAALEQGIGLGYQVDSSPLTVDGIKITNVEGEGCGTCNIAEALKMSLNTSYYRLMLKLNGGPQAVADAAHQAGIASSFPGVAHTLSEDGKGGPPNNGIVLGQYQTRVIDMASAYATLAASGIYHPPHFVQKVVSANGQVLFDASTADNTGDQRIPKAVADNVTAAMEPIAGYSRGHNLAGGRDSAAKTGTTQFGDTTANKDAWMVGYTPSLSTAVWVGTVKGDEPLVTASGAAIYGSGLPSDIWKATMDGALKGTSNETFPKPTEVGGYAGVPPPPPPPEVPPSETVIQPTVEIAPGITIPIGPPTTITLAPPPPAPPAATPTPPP
parameterMeasured: IC50 (µM)
Report as a plain number; the unit µM is understood.

* C[C@@H](O)[C@H]1C(=O)N2C(C(=O)O)=C([C@H]3CCCO3)S[C@H]12 [Faropenem] | 27.9

We next turn to a different compound, shown below.
Q) Item: CO[C@@]1(NC(=O)Cc2cccs2)C(=O)N2C(C(=O)O)=C(COC(N)=O)CS[C@@H]21 [Cefoxitin] Test system: PonA1 (Rv0050) (Mycobacterium tuberculosis) Read-out: IC50 Value: ?
A) 25.1
